Measured protein stability index values are reported for all entries that follow.
B1: MGC16075 (parent)
chain: AGSRQALSFEVPPCNYDPEKWIQ

# Variants of: B1
# EXPERIMENT NOTES: protein stability index of a GFP-peptide fusion (GPS, HEK-293T) (PSI 1-6); higher = more stable;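 note: lentivirally expressed fusions sorted by FACS into six bins by GFP to DsRed ratio, PSI derived from sequencing read proportions per bin multiplied by bin number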
# CONDITION DESCRIPTION: c terminus: native
Answer as a number with no unit attached.

Use the examples below as a reference point.
1) I22Q | 4.78
2) I22Y | 2.85
3) R4N | 1.98
4) S3W | 2.7
5) Q5R | 1.84
6) F9V | 2.57

# input I have this variant here, "P18H" , and I need its recorded protein stability index.
# output 1.84

# input What do we get for "F9T" ?
# output 2.79
